Value source: ChEMBL document CHEMBL1221271

test system: Streptococcus pneumoniae; assay: Antimicrobial activity against Streptococcus pneumoniae SP030 by broth microdilution method; type: functional
# maps each entry to its MIC

Field: example entries. Status: answers known.
| molecule | MIC |
| --- | --- |
| CCOC(=O)CCCCCOCC#Cc1ccc2c(c1)c(=O)c(C(=O)OCC)cn2CC | 16 µg/mL |
| CC[C@H]1OC(=O)[C@H](C)C(=O)[C@H](C)[C@@H](O[C@@H]2O[C@H](C)C[C@H](N(C)C)[C@H]2O)[C@](C)(OC)C[C@@H](C)C(=O)[C@H](C)[C@H]2N(CCCCn3cnc(-c4cccnc4)c3)C(=O)O[C@]12C [TELITHROMYCIN] | < 0.125 µg/mL |
| CC[C@H]1OC(=O)[C@H](C)[C@@H](O[C@H]2C[C@@](C)(OC)[C@@H](O)[C@H](C)O2)[C@H](C)[C@@H](O[C@@H]2O[C@H](C)C[C@H](N(C)C)[C@H]2O)[C@](C)(O)C[C@@H](C)CN(C)[C@H](C)[C@@H](O)[C@]1(C)O [AZITHROMYCIN] | < 0.125 µg/mL |

Input: Hello, I am looking for reported MIC with Streptococcus pneumoniae for CC[C@H]1OC(=O)[C@H](C)[C@@H](O[C@H]2C[C@@](C)(OC)[C@@H](OC(=O)CCCCCOCCCc3ccc4c(c3)c(=O)c(C(=O)O)cn4CC)[C@H](C)O2)[C@H](C)[C@@H](O[C@@H]2O[C@H](C)C[C@H](N(C)C)[C@H]2O)[C@](C)(OC)C[C@@H](C)C(=O)[C@H](C)[C@@H](O)[C@]1(C)O . Could you help?
Output: < 0.125 µg/mL
